target: Biotinylated recombinant human CD3εδ (Acro Biosystems, CDD-H82W6) (human) (UniProt P07766); assay: Octet BLI, biotinylated CD3εδ on streptavidin sensors, 1:1 model
Sequence (P07766 23-126, stated change not applied, chain 1 of 2): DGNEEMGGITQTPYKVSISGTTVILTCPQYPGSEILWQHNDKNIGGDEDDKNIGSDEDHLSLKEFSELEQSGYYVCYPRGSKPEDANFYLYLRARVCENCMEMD
Sequence (P04234 22-105, stated change not applied, chain 2 of 2, further chain): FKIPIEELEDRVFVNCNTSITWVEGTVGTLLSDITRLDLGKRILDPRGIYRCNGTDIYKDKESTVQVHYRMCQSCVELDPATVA
readout name: pKd
Answers are plain numbers, as −log10 of the molar value.

I need pKd for every entry listed below, if you could help.
1. EGFR-CD3 DuetMab with anti-CD3 variant AZ Vκ 26 + AZ VH SN82 (bispecific antibody, part only; not given: anti-EGFR arm, constant regions, V domains shown, not shown: another chain or arm of the molecule; a dimerising Fc or GST; small tags and cut ends) VH: EVQLVESGGALVKPGGSLRLSCAASGFTFSNAWMHWVRQAPGKQLEWVAQIKDRSQTYATYYAESVKGRFTISRDDSKNTLYLQMNSLKTEDTAVYYCRGVYYANTPFDYWGQGTLVTVSS VL: DIVMTQSPLSLPVTPGEPASISCRSSQSLVHNTGNTYLSWYLQKPGQSPQSLIYKVSNRASGVPDRFSGSGSGTDFTLKISRVEAEDVGVYYCGQGTQAPFSFGSGTKVEIK
2. EGFR-CD3 DuetMab with anti-CD3 variant AZ Vκ 29 + AZ VH SN79 (bispecific antibody, part only; not given: anti-EGFR arm, constant regions, V domains shown, not shown: another chain or arm of the molecule; a dimerising Fc or GST; small tags and cut ends) VH: EVQLVESGGALVKPGGSLRLSCAASGFTFSNAWMHWVRQAPGKQLEWVAQIKDRSQTYATYYAESVKGRFTISRDDSKNTLYLQMNSLKTEDTAVYYCRGVYYAVTPFDYWGQGTLVTVSS VL: DIVMTQSPLSLPVTPGEPASISCRSSQSLVHNTGNTYLSWYLQKPGQSPQSLIYKVSNRASGVPDRFSGSGSGTDFTLKISRVEAEDVGVYYCGQGTQFPFTFGSGTKVEIK

5.77
5.57
